- assay_target: FAP-expressing human WI-38 fibroblasts (Homo sapiens, UniProt Q12884)
- Sequence (Q12884 whole entry): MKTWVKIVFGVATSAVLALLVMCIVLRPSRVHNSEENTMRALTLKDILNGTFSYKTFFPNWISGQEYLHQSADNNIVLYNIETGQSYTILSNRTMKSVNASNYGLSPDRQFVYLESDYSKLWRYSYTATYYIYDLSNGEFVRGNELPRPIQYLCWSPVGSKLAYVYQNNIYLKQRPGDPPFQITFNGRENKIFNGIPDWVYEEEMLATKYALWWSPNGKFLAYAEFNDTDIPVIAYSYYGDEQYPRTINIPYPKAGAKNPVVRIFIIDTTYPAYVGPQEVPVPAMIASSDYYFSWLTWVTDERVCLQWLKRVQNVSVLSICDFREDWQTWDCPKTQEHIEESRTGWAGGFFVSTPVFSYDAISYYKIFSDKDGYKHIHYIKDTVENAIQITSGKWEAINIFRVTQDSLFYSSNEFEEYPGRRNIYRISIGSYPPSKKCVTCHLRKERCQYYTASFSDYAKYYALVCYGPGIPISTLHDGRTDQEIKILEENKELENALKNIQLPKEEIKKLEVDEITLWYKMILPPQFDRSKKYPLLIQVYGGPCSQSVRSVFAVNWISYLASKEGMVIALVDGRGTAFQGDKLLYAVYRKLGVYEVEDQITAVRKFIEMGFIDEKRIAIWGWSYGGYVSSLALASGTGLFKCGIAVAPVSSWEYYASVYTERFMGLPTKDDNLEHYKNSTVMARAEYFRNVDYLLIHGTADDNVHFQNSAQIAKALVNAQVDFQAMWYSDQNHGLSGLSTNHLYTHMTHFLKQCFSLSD
pIC50: −log10 of the molar value. Numbered stars: 1 amine (or outer) side, 2 acyl side, 3 side chain; on linkers, the order of the positions; unused ones are H or OH. Bridge positions count the residues as written; N and C are the ends. Square brackets hold non-standard residues; d marks the D form. Peptide text beside a SMILES is read from it. * marks the point of attachment. ξ: configuration not given here. X17 = NC(=O)[C@H](CCCCNC(=O)CN1CCN(CC(=O)O)CCN(CC(=O)O)CCN(CC(=O)O)CC1)NC(=O)CCC(=O)NCCCOCCOCCOCCCN*; X7 = O=C(CCP(=O)(O)CN1CCN(CP(=O)(O)CO)CCN(CP(=O)(O)CO)CC1)NCCSCc1cc(C[*:1])cc(C[*:2])c1; X1 = NCCNCC(CNCCN)C(=O)N1CCN(CC(=O)NCCCOCCOCCOCCCN*)CC1; mXylylene = c1cc(C[*:1])cc(C[*:2])c1; NMeF = CN[C@@H](Cc1ccccc1)C(=O)O; Suc = O=C(CCC(=O)[*:2])[*:1]; Nle = CCCC[C@H](N)C(=O)O; Hexanoyl = CCCCCC(=O)*; CO = O=C([*:1])[*:2]; ξC = NC(CS)C(=O)O; NHBu = CCCCN*
// reported pIC50 per item
measurement_kind: pIC50

molecule="CCCCCC(=O)N[C@H]1CSCc2cccc(c2)CSC[C@@H](C(N)=O)NC(=O)[C@H](Cc2ccccc2)N(C)C(=O)[C@H](CCC(=O)O)NC(=O)[C@H]([C@@H](C)O)NC(=O)[C@@H]2CCCN2C(=O)[C@@H]2CCCN2C1=O [3BP-3358] (Hexanoyl-CPPTE[NMeF]C-NH2; linker 1-7 via mXylylene)" measurement_kind=pIC50 result_value="< 6.00"
molecule=CCCC[C@H](NC(=O)CCC(=O)NCCCOCCOCCOCCCNC(=O)CN1CCN(CC(=O)O)CCN(CC(=O)O)CCN(CC(=O)O)CC1)C(=O)N[C@H]1CSCc2cccc(c2)CSC[C@@H](C(=O)N[C@@H](CC(=O)O)C(=O)NCCCOCCOCCOCCCNC(=O)CCC(=O)N[C@@H](CCCCNC(=O)CN2CCN(CC(=O)O)CCN(CC(=O)O)CCN(CC(=O)O)CC2)C(N)=O)NC(=O)[C@H](Cc2ccccc2)NC(=O)[C@H](CCC(N)=O)NC(=O)[C@H]([C@@H](C)O)NC(=O)[C@@H]2CCCN2C(=O)[C@@H]2CCCN2C1=O measurement_kind=pIC50 result_value="> 8.00"
molecule="CCCC[C@H](NC(=O)CCC(=O)NCCCOCCOCCOCCCNC(=O)CN1CCN(C(=O)C(CNCCN)CNCCN)CC1)C(=O)N[C@H]1CSCc2cccc(c2)CSC[C@@H](C(=O)O)NC(=O)[C@H](Cc2ccccc2)NC(=O)[C@H](CCC(=O)O)NC(=O)[C@H]([C@@H](C)O)NC(=O)[C@@H]2CCCN2C(=O)[C@@H]2CCCN2C1=O [3BP-4782] ({X1-Suc}-[Nle]CPPTEFC-OH; linker 2-8 via mXylylene)" measurement_kind=pIC50 result_value="7.10 to 8.00"
molecule="CCCCCC(=O)N[C@H]1CSCc2cccc(c2)CSC[C@@H](C(=O)N[C@@H](CC(=O)O)C(=O)NCCCOCCOCCOCCCNC(=O)CCC(=O)N[C@@H](CCCCNC(=O)CN2CCN(CC(=O)O)CCN(CC(=O)O)CCN(CC(=O)O)CC2)C(N)=O)NC(=O)[C@H](Cc2ccccc2)NC(=O)[C@H](CCC(=O)O)NC(=O)[C@H]([C@@H](C)O)NC(=O)[C@@H]2CCCN2C(=O)[C@@H]2CCCN2C1=O [3BP-3396] (Hexanoyl-CPPTEFCD-X17; linker 1-7 via mXylylene)" measurement_kind=pIC50 result_value="> 8.00"
molecule="CCCCNC(=O)N[C@H]1CSCc2cc(CSCCNC(=O)CCP(=O)(O)CN3CCN(CP(=O)(O)CO)CCN(CP(=O)(O)CO)CC3)cc(c2)CSCC(C(=O)O)NC(=O)[C@H](Cc2ccccc2)NC(=O)[C@H](CCC(=O)O)NC(=O)[C@H]([C@@H](C)O)NC(=O)[C@@H]2CCCN2C(=O)[C@@H]2CCCN2C1=O (some centres unmarked) [3BP-4778] ({NHBu-CO}-CPPTEF[ξC]-OH; linker 1-7 via X7)" measurement_kind=pIC50 result_value="> 8.00"

###

- assay_info: in vivo
- assay_context: female, athymic nude, mouse, tumor, iv
measurement_kind: tissue uptake at 0.25 h (%ID/g)

compound="CCCC[C@H](NC(=O)CCC(=O)NCCCOCCOCCOCCCNC(=O)CN1CCN(CC(=O)O)CCN(CC(=O)O)CC1)C(=O)N[C@H]1CSCc2cccc(c2)CSCC(C(=O)O)NC(=O)[C@H](Cc2ccccc2)NC(=O)[C@H](CCC(N)=O)NC(=O)[C@H]([C@@H](C)O)NC(=O)[C@@H]2CCCN2C(=O)[C@@H]2CCCN2C1=O (stereo partly drawn)" result_value=5.56
compound="CCCCNC(=O)N[C@H]1CSCc2cc(CSCCNC(=O)CN3CCN(CC(=O)O)CCN(CC(=O)O)CC3)cc(c2)CSCC(C(=O)O)NC(=O)[C@H](Cc2ccccc2)NC(=O)[C@H](CCC(N)=O)NC(=O)[C@H]([C@@H](C)O)NC(=O)[C@@H]2CCCN2C(=O)[C@@H]2CCCN2C1=O (stereo partly drawn)" result_value=7.48
compound="CCCC[C@H](NC(=O)CCC(=O)NCCCOCCOCCOCCCNC(=O)CCC(C(=O)O)N1CCN(CC(=O)O)CCN(CC(=O)O)CC1)C(=O)N[C@H]1CSCc2cccc(c2)CSCC(C(=O)O)NC(=O)[C@H](Cc2ccccc2)NC(=O)[C@H](CCC(N)=O)NC(=O)[C@H]([C@@H](C)O)NC(=O)[C@@H]2CCCN2C(=O)[C@@H]2CCCN2C1=O (stereo partly drawn)" result_value=5.15

###

- assay_info: in vivo
- assay_context: swiss nude, mouse, kidneys, iv
Numbered stars: 1 amine (or outer) side, 2 acyl side, 3 side chain; on linkers, the order of the positions; unused ones are H or OH. Bridge positions count the residues as written; N and C are the ends. Square brackets hold non-standard residues; d marks the D form. Peptide text beside a SMILES is read from it. * marks the point of attachment. ξ: configuration not given here. X6 = NCCNCC(CNCCN)C(=O)NCCOCCOCCOCCOCCOCCOCCC(=O)NCCCOCCOCCOCCCN*; X1 = NCCNCC(CNCCN)C(=O)N1CCN(CC(=O)NCCCOCCOCCOCCCN*)CC1; Pyridine(3,5-bisCH2) = c1ncc(C[*:2])cc1C[*:1]; mXylylene = c1cc(C[*:1])cc(C[*:2])c1; Suc = O=C(CCC(=O)[*:2])[*:1]; Nle = CCCC[C@H](N)C(=O)O; ξC = NC(CS)C(=O)O; βAla = NCCC(=O)O
// reported tissue uptake at 6 h per item
measurement_kind: tissue uptake at 6 h (%ID/g)

molecule="CCCC[C@H](NC(=O)CCC(=O)NCCCOCCOCCOCCCNC(=O)CN1CCN(C(=O)C(CNCCN)CNCCN)CC1)C(=O)N[C@H]1CSCc2cccc(c2)CSC[C@@H](C(=O)NCCC(=O)O)NC(=O)[C@H](Cc2ccccc2)NC(=O)[C@H](CCC(=O)O)NC(=O)[C@H]([C@@H](C)O)NC(=O)[C@@H]2CCCN2C(=O)[C@@H]2CCCN2C1=O [3BP-4784] ({X1-Suc}-[Nle]CPPTEFC[βAla]-OH; linker 2-8 via mXylylene)" result_value=1.01
molecule="CCCC[C@H](NC(=O)CCC(=O)NCCCOCCOCCOCCCNC(=O)CN1CCN(C(=O)C(CNCCN)CNCCN)CC1)C(=O)N[C@H]1CSCc2cncc(c2)CSCC(C(=O)O)NC(=O)[C@H](Cc2ccccc2)NC(=O)[C@H](CCC(=O)O)NC(=O)[C@H]([C@@H](C)O)NC(=O)[C@@H]2CCCN2C(=O)[C@@H]2CCCN2C1=O (stereo partly shown) [3BP-4775] ({X1-Suc}-[Nle]CPPTEF[ξC]-OH; linker 2-8 via Pyridine(3,5-bisCH2))" result_value=4.28
molecule="CCCC[C@H](NC(=O)CCC(=O)NCCCOCCOCCOCCCNC(=O)CCOCCOCCOCCOCCOCCOCCNC(=O)C(CNCCN)CNCCN)C(=O)N[C@H]1CSCc2cccc(c2)CSC[C@@H](C(=O)O)NC(=O)[C@H](Cc2ccccc2)NC(=O)[C@H](CCC(=O)O)NC(=O)[C@H]([C@@H](C)O)NC(=O)[C@@H]2CCCN2C(=O)[C@@H]2CCCN2C1=O [3BP-4780] ({X6-Suc}-[Nle]CPPTEFC-OH; linker 2-8 via mXylylene)" result_value=4.36
molecule="CCCC[C@H](NC(=O)CCC(=O)NCCCOCCOCCOCCCNC(=O)CN1CCN(C(=O)C(CNCCN)CNCCN)CC1)C(=O)N[C@H]1CSCc2cncc(c2)CSCC(C(=O)O)NC(=O)[C@H](Cc2ccccc2)NC(=O)[C@H](CCC(N)=O)NC(=O)[C@H]([C@@H](C)O)NC(=O)[C@@H]2CCCN2C(=O)[C@@H]2CCCN2C1=O (stereo partly shown)" result_value=0.48

Every entry's value here was drawn from patent US20230212549A1.
